Data credit: ChEMBL document CHEMBL1132964

# Experiment: Maximal plasma concentration in male Beagle dogs at 10 mg/kg oral dose
# Assay type: ADME, organism-based, Canis lupus familiaris
# Parameters: dose 10 mg/kg, route oral
# Measurement Context: dog
Metric: Cmax (µg/mL)
The figure you give is taken to be in µg/mL; do not add the unit.

## Task Recorded Cmax of Cc1ccccc1C(Oc1cc(OCc2ccc3c(c2)OCO3)ccc1C#N)C(=O)[O-].[Na+] (stereo unspecified) , please.
## Result 30.1

----------
# Target Desc: Endothelin-1 receptor (Rattus norvegicus, UniProt P26684)
# Sequence (P26684 whole entry): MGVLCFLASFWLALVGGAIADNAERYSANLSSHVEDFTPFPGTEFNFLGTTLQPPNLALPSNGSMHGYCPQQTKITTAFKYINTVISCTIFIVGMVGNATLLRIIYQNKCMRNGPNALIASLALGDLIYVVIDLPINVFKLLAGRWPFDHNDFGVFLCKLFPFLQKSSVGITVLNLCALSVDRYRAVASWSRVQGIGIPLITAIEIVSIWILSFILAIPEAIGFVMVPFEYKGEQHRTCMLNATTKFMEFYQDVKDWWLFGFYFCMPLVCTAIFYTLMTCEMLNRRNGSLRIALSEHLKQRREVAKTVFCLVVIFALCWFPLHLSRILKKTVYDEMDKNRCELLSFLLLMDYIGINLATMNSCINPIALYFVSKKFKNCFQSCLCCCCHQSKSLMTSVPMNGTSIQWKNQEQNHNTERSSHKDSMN
# Experiment: In vitro ability to antagonise the binding of [125I]ET1 to the rat aortic A10 cell membrane endothelin A receptor.
Metric: IC50

Worked cases, IC50 given:
## Task Fill blank: measured IC50 of the compound COc1ccccc1C(Oc1cc(OCc2ccsc2)ccc1C#N)C(=O)O (centres undefined) is ____.
## Result 529 nM

## Task Next entry: Cc1ccccc1C(Oc1cc(OCc2ccnc(F)c2)ccc1C#N)C(=O)O (centres undefined)
## Result 23 nM

## Task And what about the compound `Cc1ccccc1[C@H](Oc1cc(OCc2ccncc2)ccc1C#N)C(=O)O` ?
## Result 5 nM

Further cases:
## Task Consider the compound shown here: Cc1ccccc1C(Oc1cc(OCc2ccncc2)ccc1C#N)C(=O)[O-].[Na+] (centres undefined) What is its recorded IC50?
## Result 5 nM

## Task Entry Cc1ccccc1C(Oc1cc(OCc2ccc3ocnc3c2)ccc1C#N)C(=O)O (centres undefined) please
## Result 75 nM

## Task Another: N#Cc1ccc(OCc2ccsc2)cc1OC(C(=O)O)c1ccccc1F (centres undefined)
## Result 22 nM

## Task Now consider Cc1ccccc1C(Oc1cc(OCc2ccncc2)ccc1C#N)C(=O)O (centres undefined) and answer again.
## Result 9 nM

## Task Also, Cc1ccccc1C(Oc1cc(OCc2cncs2)ccc1C#N)C(=O)O (centres undefined) please.
## Result 30 nM

## Task Next up: Cc1ccccc1C(Oc1cc(OCc2ccc3c(c2)OCO3)ccc1C#N)C(=O)O (centres undefined)
## Result 12 nM

## Task Lookup Cc1ccccc1C(Oc1cc(OCc2ccsc2)ccc1C#N)C(=O)O (centres undefined)
## Result 20 nM

## Task Moving on to the next compound: N#Cc1ccc(OCc2ccc3c(c2)OCO3)cc1OC(C(=O)O)c1ccccc1 (centres undefined)
## Result 41 nM

## Task Also Cc1ccccc1C(Oc1cc(OCc2c(C)cccc2C)ccc1C#N)C(=O)O (centres undefined) ?
## Result 857 nM

## Task Would you mind doing N#Cc1ccc(OCc2ccc3c(c2)OCO3)cc1OC(C(=O)O)c1ccccc1C(F)(F)F (centres undefined) as well?
## Result 16 nM

## Task Would you mind doing COc1cc(COc2ccc(C#N)c(OC(C(=O)O)c3ccccc3C)c2)cc(OC)c1OC (centres undefined) as well?
## Result > 3000 nM
